# targetOrTestSystem: Ubiquitin-activating enzyme e1, putative (Leishmania donovani (strain BPK282A1))
# experiment: Leishmania donovani Ubiquitin Activating Enzyme (LdE1)
# Assay type: functional
# Design: scale not given: direction of the effect not stated beside the values
# runConditions: 30 µM
Entries with a potency or affinity are not part of this list.
reportedEndpoint: Percent Effect (%)
Please respond with the number in % and leave the unit unwritten.

These recorded examples may help you get a feel for the data.
>>> df
                                   molecule                        targetortestsystem  unitlabel  measurednumber
0  O=C1N(Cc2cccc(F)c2F)CCCC1(O)CN1CCCOCC1 (configuration not stated)  Ubiquitin-activating enzyme e1, putative (Leishmania donovani (strain BPK282A1))          %           -5.33
1  COc1ccc(CS(=O)(=O)CC(=O)NCc2ccccc2F)cc1F  Ubiquitin-activating enzyme e1, putative (Leishmania donovani (strain BPK282A1))          %            7.89
2  CC(=O)Nc1nc(C(=O)Nc2ccc(N3CCCCC3)nc2)cs1  Ubiquitin-activating enzyme e1, putative (Leishmania donovani (strain BPK282A1))          %            -3.8
3  O=C(c1c[nH]c(=O)c(Cl)c1)N1C[C@@H]2CC[C@H](C1)N(Cc1ccccc1)C2  Ubiquitin-activating enzyme e1, putative (Leishmania donovani (strain BPK282A1))          %            5.48
4  CC1CN(C(=O)CN(Cc2ccccc2Br)C2CC2)CCO1 (configuration not stated)  Ubiquitin-activating enzyme e1, putative (Leishmania donovani (strain BPK282A1))          %               0

Supply reported Percent Effect belonging to this molecule: "CCc1ccc(NS(=O)(=O)CC2=NC(=O)n3cccc3C2=O)cc1"
-17.3

Supply reported Percent Effect belonging to this molecule: "Cc1ccc(C)c(NC(=O)Nc2c[nH]c(=O)[nH]c2=O)c1"
13

Supply reported Percent Effect belonging to this molecule: "NC(=O)Cc1ccc(NC(=O)C2CCOCC2)cc1"
10.8

Supply reported Percent Effect belonging to this molecule: CCCc1noc(CN2CCCC2c2ccsc2)n1 (configuration not stated)
-10.1
